meta.source: patent US5387512A

# system: recombinant HIV reverse transcriptase (HIV RTR) (Human immunodeficiency virus type 1 group M subtype B, UniProt P04585)
# Construct: recombinant HIV reverse transcriptase (HIV RTR)
# assayText: Reverse Transcriptase Assay
# conditionSet: incorporation of [3H]dGMP into acid-precipitable cDNA; dGTP and poly r(C).oligo d(G)12-18 at Km; 37° C., 45 minutes; read-out: calculated IC50 value
pIC50: −log10 of the molar value.
experimentalEndpoint: pIC50

Q: Would you kindly share the measured pIC50 for Cc1[nH]c(=O)c(CCc2nc3ccccc3o2)cc1C(C)O (stereo not shown) ?
A: ~6.15

---

# assayText: Incubation With Rat Liver Slices
# Type: in vitro ADME
# conditionSet: tritiated compound 14.18 μmol, rat liver slices 6.1 g, Williams Medium E, pH 7.4, 37° C., four hours; read-out: metabolism
experimentalEndpoint: metabolised at 4 h

Q: Would you kindly share the measured metabolised at 4 h for CCc1cc(CCc2nc3ccccc3o2)c(O)nc1C ?
A: ~32%
